Biological target: T1, human Nectin-4 (Homo sapiens, UniProt Q96NY8)
T1 sequence (Q96NY8 32-510): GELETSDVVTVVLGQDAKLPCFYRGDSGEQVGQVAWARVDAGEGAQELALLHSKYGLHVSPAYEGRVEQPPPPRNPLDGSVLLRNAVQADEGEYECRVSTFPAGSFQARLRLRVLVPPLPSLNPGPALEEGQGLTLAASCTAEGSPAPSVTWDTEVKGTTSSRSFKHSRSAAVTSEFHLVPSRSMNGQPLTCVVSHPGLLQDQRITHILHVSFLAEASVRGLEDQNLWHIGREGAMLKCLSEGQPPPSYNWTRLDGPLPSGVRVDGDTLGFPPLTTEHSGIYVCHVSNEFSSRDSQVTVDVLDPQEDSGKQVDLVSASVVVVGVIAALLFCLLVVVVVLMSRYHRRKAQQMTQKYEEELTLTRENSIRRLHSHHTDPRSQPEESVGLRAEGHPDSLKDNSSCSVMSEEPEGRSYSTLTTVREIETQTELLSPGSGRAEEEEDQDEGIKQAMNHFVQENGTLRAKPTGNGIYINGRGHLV
Test: Binding to human Nectin-4 by SPR
Settings: SPR dissociation constant; second set (Table 7)
Each entry below carries its recorded kd.

molecule	kd, s⁻¹
H7L3 (antibody, human IgG1, V domains shown, human IgG1 isotype) VH: QVQLVQSGAEVKKPGASVKVSCKASGYIFTSYWMHWVKQRPGQGLEWIGEIDPSDSYTNYNQKFKGRVTLTLDKSTSTTYMELSSLRSEDTAVYYCARGYGNYGDYWGQGTLVTVSS VL: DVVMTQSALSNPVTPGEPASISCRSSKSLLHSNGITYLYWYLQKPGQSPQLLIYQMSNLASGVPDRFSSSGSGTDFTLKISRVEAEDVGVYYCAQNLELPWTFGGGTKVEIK	0.0055
H7L1 (antibody, human IgG1, V domains shown, human IgG1 isotype) VH: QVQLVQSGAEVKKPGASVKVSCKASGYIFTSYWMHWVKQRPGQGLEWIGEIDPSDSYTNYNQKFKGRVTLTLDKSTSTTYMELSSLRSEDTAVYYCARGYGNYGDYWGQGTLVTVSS VL: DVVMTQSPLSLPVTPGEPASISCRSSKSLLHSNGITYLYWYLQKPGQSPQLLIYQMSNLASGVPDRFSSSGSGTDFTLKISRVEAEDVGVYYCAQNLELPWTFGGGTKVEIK	0.006
H4L1 (antibody, human IgG1, V domains shown, human IgG1 isotype) VH: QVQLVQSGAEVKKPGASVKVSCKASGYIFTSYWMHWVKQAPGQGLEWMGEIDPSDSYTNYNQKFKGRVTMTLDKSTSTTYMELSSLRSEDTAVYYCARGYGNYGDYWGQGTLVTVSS VL: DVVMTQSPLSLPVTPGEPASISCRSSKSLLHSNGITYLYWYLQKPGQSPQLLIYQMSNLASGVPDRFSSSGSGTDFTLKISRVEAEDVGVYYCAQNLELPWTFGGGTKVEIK	0.0059
